Target under test: α-glucosidase (Saccharomyces cerevisiae, UniProt P53341)
Sequence (P53341 whole entry): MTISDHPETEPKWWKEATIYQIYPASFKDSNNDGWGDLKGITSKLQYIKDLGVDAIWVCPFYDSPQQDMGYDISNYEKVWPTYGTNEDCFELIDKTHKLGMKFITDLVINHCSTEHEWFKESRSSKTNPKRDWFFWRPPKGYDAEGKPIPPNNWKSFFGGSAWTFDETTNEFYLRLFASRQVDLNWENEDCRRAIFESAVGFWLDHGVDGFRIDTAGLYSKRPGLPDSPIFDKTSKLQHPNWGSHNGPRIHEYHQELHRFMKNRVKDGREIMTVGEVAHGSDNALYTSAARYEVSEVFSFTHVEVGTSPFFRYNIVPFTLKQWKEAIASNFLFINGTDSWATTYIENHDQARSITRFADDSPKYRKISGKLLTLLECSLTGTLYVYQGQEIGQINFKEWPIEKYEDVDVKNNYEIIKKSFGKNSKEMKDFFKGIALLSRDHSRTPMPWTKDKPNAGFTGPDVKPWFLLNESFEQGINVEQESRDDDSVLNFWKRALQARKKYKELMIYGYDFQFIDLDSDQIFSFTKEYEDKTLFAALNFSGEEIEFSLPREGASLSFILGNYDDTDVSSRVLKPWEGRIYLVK
Assay protocol: Kinetic analysis of inhibitory type
Assay type: biochemical
Test parameters: Lineweaver–Burk plots
Readout type: Inhibitory type

| Item smiles | Readout type | Reported result |
| --- | --- | --- |
| O=c1c(O)c(-c2cc(O)c(O)c(O)c2)oc2cc(O)cc(O)c12 | Inhibitory type | Mixed-type |
| O=c1c(O)c(-c2ccc(O)cc2)oc2cc(O)cc(O)c12 | Inhibitory type | Mixed-type |
| O=c1c(O)c(-c2ccc(O)c(O)c2)oc2cc(O)cc(O)c12 | Inhibitory type | Mixed-type |
